- Test system: levator ani
- protocol.description: Levator Ani Weight in vivo Assay (stimulation of levator ani weight)
- Design: key: “active” in the Table below if the non weight adjusted levator ani weight was ≧40 mg or the % Stimulation levator ani weight, body weight adjusted was ≧40% at 2 mg/day dosage; listed herein as “inactive” as they did not meet the specified criteria defined above
- recorded.conditions: castrated male Sprague Dawley rats, test compound usually orally once daily with testosterone propionate s.c.; levator ani wet weight; criteria at 2 mg/day dosage
observation.type: L.A. agonist

FC(F)(F)C1(c2nc3cc(Cl)c(Cl)cc3[nH]2)CCCO1 (stereo not drawn) [Compound 46]: active
C=CC(O)(c1nc2cc(Cl)c(Cl)cc2[nH]1)C(F)(F)F (stereo not drawn) [Compound 4]: active
C#CCC(O)(c1nc2cc(Cl)c(Cl)cc2[nH]1)C(F)(F)F (stereo not drawn) [Compound 2]: active

Values were extracted from patent US8802865B2.
